The reported numbers originate from paper PMC5627750.

Assay: in vivo
Details: male, Sprague-Dawley, rat, iv, 10 mg
readout-label: Vd (L/kg)
Response body: numeric value in L/kg, unit text excluded.

Given COc1cc2c(c(OC)c1OC)-c1c(cc3c(c1OC)OCO3)CC(C)C(C)C2 (stereo not shown) [Sch B solution, Schisandrin B] , state its recorded Vd.
18.5

###

Test: in vivo
Details: male, Sprague-Dawley, rat, iv, 10 mg
readout-label: clearance (mL/min/kg)
Respond numerically; units are mL/min/kg and should not be typed.

Need clearance, item COc1cc2c(c(OC)c1OC)-c1c(cc3c(c1OC)OCO3)CC(C)C(C)C2 (stereo not shown)
65.7

###

Experiment: in vivo
Details: male, Sprague-Dawley, rat, iv, 10 mg
readout-label: half-life (min)
// note: answer is a bare numeric in min

Can you look up the measured half-life of COc1cc2c(c(OC)c1OC)-c1c(cc3c(c1OC)OCO3)CC(C)C(C)C2 (stereo not shown) for me?
55.8
